SUBJECT OF TEST: T1, EGFR Fc (human, UniProt P00533 25-645)
T1 construct: also called EGFR-hFc; recombinant human EGFR-Fc
METHOD NOTES: blocking ELISA, EGFR-hFc + VHH at 8 nM on coated EGF-mFc
PROPERTY NAME: OD450

pgEG-SX57 (VHH, not shown: small tags and cut ends) VHH: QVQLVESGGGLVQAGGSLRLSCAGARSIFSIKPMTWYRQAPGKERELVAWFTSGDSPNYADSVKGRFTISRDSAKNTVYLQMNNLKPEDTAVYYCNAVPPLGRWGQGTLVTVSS: 0.649
pgEG-SX6 (VHH, not shown: small tags and cut ends) VHH: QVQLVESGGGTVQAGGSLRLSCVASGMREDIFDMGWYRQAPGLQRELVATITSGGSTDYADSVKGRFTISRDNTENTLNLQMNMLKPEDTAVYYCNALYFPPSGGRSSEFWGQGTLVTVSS: 0.757
